pIC50: −log10 of the molar value.
Let's go through some pIC50 measurements on USP7 (Homo sapiens, UniProt Q93009) together.
Sequence (Q93009 whole entry): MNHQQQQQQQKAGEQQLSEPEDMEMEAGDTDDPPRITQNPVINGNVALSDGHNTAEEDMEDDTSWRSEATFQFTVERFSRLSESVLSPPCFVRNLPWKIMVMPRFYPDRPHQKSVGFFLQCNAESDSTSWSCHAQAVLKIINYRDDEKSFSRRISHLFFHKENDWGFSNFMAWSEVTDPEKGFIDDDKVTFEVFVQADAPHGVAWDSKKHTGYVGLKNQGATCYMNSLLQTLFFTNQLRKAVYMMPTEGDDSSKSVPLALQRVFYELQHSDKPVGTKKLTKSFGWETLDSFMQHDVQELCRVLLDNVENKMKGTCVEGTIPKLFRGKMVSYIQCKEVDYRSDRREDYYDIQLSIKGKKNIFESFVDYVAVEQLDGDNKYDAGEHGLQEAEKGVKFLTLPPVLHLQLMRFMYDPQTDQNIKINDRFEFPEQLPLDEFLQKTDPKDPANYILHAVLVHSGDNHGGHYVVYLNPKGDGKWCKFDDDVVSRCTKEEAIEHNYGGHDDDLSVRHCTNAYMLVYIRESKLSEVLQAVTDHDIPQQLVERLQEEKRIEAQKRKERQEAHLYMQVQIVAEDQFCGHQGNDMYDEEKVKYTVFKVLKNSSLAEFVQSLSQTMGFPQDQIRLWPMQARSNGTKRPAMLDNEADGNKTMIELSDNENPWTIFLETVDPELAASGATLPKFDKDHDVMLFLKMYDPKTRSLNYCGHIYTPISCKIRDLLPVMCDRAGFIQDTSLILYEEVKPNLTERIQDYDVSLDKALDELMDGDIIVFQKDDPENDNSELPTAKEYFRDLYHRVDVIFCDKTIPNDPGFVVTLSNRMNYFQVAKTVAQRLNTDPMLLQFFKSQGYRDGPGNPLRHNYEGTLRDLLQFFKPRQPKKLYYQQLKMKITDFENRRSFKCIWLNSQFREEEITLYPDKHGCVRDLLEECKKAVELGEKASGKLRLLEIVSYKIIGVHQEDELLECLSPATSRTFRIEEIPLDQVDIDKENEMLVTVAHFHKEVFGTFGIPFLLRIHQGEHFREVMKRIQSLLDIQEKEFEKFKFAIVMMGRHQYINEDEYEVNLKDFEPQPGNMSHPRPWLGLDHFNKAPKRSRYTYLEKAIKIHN

Previously resolved entries follow.
Q) Form field: pIC50 recorded for Cc1cc(Cl)cc(-c2ncnc3cc(CN4C(=O)C5CC5C4=O)sc23)c1C[C@@H]1CN(C(=O)C(F)(F)F)CCO1 (stereo partly shown) with USP7 (Homo sapiens, UniProt Q93009) (enter value)
A) > 8.00

Q) Try Cc1cc(Cl)cc(-c2ncnc3cc(CN4C(=O)C5C(C4=O)C5(C)C)sc23)c1CN1[C@@H](C)CNC[C@@H]1C (stereo partly shown) next.
A) 7.00 to 8.00

Q) Try `Cc1cc(Cl)cc(-c2ncnc3cc(CN4C(=O)CCN(CCF)C4=O)sc23)c1C[C@@H]1CNCC(C)(C)O1` next.
A) > 8.00

Q) Try CC[C@H]1CNCCN1Cc1c(C)cc(Cl)cc1-c1ncnc2cc(CN3C(=O)C4C(C3=O)C4(C)C)sc12 (stereo partly shown) next.
A) 7.00 to 8.00

Q) Try Cc1cc(Cl)cc(-c2ncnc3cc(CN4C(=O)C5CC5C4=O)sc23)c1CC1CNCCO1 (stereo not shown) next.
A) > 8.00

Q) Try Cc1cc(Cl)cc(-c2ccnc3cc(CN4C(=O)C5C(C4=O)C5(C)C)sc23)c1CC1CNCCO1 (stereo not shown) next.
A) > 8.00

Q) Try Cc1cc(Cl)cc(-c2ncnc3cc(CN4C(=O)C5CCCN5C4=O)sc23)c1CC1CNCC(C)(C)O1 (stereo not shown) next.
A) > 8.00

Q) Try `Cc1cc(Cl)cc(-c2ncnc3cc(Cn4c(=O)ccn(C)c4=O)sc23)c1C[C@@H]1CNCC(C)(C)O1` next.
A) > 8.00

Q) Try Cc1cc(Cl)cc(-c2ccnc3cc(CN4C(=O)C5CC5C4=O)sc23)c1CC1CNCCS1(=O)=O (stereo not shown) next.
A) 7.00 to 8.00

Q) Try `Cc1cc(Cl)cc(-c2ncnc3cc(CN4C(=O)CC(C)(C)CC4=O)sc23)c1CN1C[C@@H](C)NC[C@@H]1C` next.
A) 7.00 to 8.00

---
Q) Form field: pIC50 recorded for Cc1cc(Cl)cc(-c2ncnc3cc(CN4C(=O)C5CC5C4=O)sc23)c1CC1CNCC2(COC2)O1 (stereo not shown) with USP7 (Homo sapiens, UniProt Q93009) (enter value)
A) > 8.00

Q) Try Cc1cc(Cl)cc(-c2ccnc3c(F)c(CN4C(=O)C5C(C4=O)C5(C)C)sc23)c1C[C@@H]1CNCCO1 (stereo partly shown) next.
A) 7.00 to 8.00

Q) Try `Cc1cc(Cl)cc(-c2ncnc3cc(CN4CCCC4=O)sc23)c1C[C@@H]1CNCC(C)(C)O1` next.
A) 7.00 to 8.00

Q) Try CCN1CCN(Cc2c(C)cc(Cl)cc2-c2ncnc3cc(CN4C(=O)C5C(C4=O)C5(C)C)sc23)[C@@H](C)C1 (stereo partly shown) next.
A) > 8.00

Q) Try Cc1cc(C#N)cc(-c2ncnc3cc(CN4C(=O)C5CC5C4=O)sc23)c1CN1CCNC[C@@H]1C (stereo partly shown) next.
A) 7.00 to 8.00

Q) Try COC(=O)C1CC1C(=O)NCc1cc2ncnc(-c3cc(Cl)cc(C)c3C[C@H]3OCCN[C@@H]3C)c2s1 (stereo partly shown) next.
A) 7.00 to 8.00

Q) Try Cc1cc(Cl)cc(-c2ncnc3cc(CN4C(=O)CCC4C)sc23)c1C[C@@H]1CNCC(C)(C)O1 (stereo partly shown) next.
A) 7.00 to 8.00

Q) Try Cc1cc(Cl)cc(-c2ncnc3cc(CN4C(=O)C5CCCN5C4=O)sc23)c1CN1[C@@H](C)CNC[C@@H]1C (stereo partly shown) next.
A) > 8.00

Q) Try Cc1cc(Cl)cc(-c2ncnc3cc(CN4C(=O)N(C)C(C)(C)C4=O)sc23)c1CC1CNCCO1 (stereo not shown) next.
A) > 8.00

Q) Try `Cc1cc(Cl)cc(-c2ncnc3cc(CN4C(=O)CN(CC(F)(F)F)C4=O)sc23)c1CN1[C@@H](C)CNC[C@@H]1C` next.
A) > 8.00

Q) Try Cn1ccc(=O)n(Cc2cc3ncnc(-c4cc(Cl)cc(Cl)c4CC4CNCC(C)(C)O4)c3s2)c1=O (stereo not shown) next.
A) > 8.00

Q) Try `Cc1cc(Cl)cc(-c2ncnc3cc(CN4C(=O)CCN(CC(F)(F)F)C4=O)sc23)c1CN1[C@@H](C)CNC[C@@H]1C` next.
A) > 8.00

Q) Try `Cc1cc(Cl)cc(-c2ncnc3cc(CN4C(=O)CC[C@H]4C(F)(F)F)sc23)c1CN1[C@@H](C)CNC[C@@H]1C` next.
A) < 7.00

Q) Try `COC(=O)[C@H]1CCC(=O)N1Cc1cc2ncnc(-c3cc(Cl)cc(C)c3C[C@@H]3CNCC(C)(C)O3)c2s1` next.
A) > 8.00

Q) Try Cc1cc(Cl)cc(-c2ncnc3cc(CN4C(=O)COCC4=O)sc23)c1CC1CNCCO1 (stereo not shown) next.
A) > 8.00

Q) Try Cc1cc(Cl)cc(-c2ccnc3cc(CN4C(=O)C5CC5C4=O)sc23)c1CN1[C@@H](C)CNC[C@@H]1C (stereo partly shown) next.
A) > 8.00

Q) Try Cc1cc(Cl)cc(-c2ncnc3cc(CN4C(=O)CCN(C)C4=O)sc23)c1CC1CNCC(C)(C)O1 (stereo not shown) next.
A) > 8.00

Q) Try Cc1cc(Cl)cc(-c2ccnc3cc(CN4C(=O)C5CC5C4=O)sc23)c1CC1CNCC(C)(C)O1 (stereo not shown) next.
A) > 8.00

====

pIC50: −log10 of the molar value.
Let's go through some pIC50 measurements on USP7 (Homo sapiens) together.

Previously resolved entries follow.
Q) Item Cc1cc(Cl)cc(-c2ccnc3cc(CN4C(=O)C5C(C4=O)C5(C)C)sc23)c1CN1CCN(C)C[C@@H]1C (stereo partly shown) has what recorded pIC50?
A) > 8.00

Q) Try `Cc1cc(Cl)cc(-c2ccnc3cc(CN4C(=O)CCC4=O)sc23)c1CN1CCNC[C@@H]1C` next.
A) > 8.00

Q) Try Cc1cc(Cl)cc(-c2ccnc3cc(Cn4c(=O)ccn(C)c4=O)sc23)c1CC1CNCC2(CCC2)O1 (stereo not shown) next.
A) > 8.00

Q) Try Cc1cc(Cl)cc(-c2ccnc3cc(CN4C(=O)C5CC5C4=O)sc23)c1C[C@H]1OCCN[C@H]1C (stereo partly shown) next.
A) > 8.00

Q) Try CC1(C)CNCC(Cc2c(Cl)cc(Cl)cc2-c2ncnc3cc(Cn4cnccc4=O)sc23)O1 (stereo not shown) next.
A) < 7.00

Q) Try Cc1cc(Cl)cc(-c2ccnc3cc(CN4C(=O)C5CCCN5C4=O)sc23)c1CC1CNCCO1 (stereo not shown) next.
A) > 8.00

Please find the next molecule below.
Q) Item `Cc1cc(Cl)cc(-c2ncnc3cc(CN4CCCC4=O)sc23)c1CN1C[C@@H](C)NC[C@@H]1C` has what recorded pIC50?
A) < 7.00

====

Let's go through some pIC50 measurements on UniProtKB Q93009 together.
pIC50: −log10 of the molar value.

Previously resolved entries follow.
Q) Item C[C@H]1CNCCN1Cc1c(F)cc(Cl)cc1-c1ncnc2cc(CN3C(=O)C4CC4C3=O)sc12 (stereo partly drawn) has what recorded pIC50?
A) 7.00 to 8.00

Q) Try Cc1cc(Cl)cc(-c2ncnc3cc(CN4C(=O)C5CCC5C4=O)sc23)c1CC1CNCCO1 (stereo not drawn) next.
A) > 8.00

Q) Try `Cc1cc(Cl)cc(-c2ncnc3cc(CN4C(=O)CNC4=O)sc23)c1C[C@@H]1CNCC(C)(C)O1` next.
A) > 8.00

Q) Try Cc1cc(Cl)cc(-c2ccnc3cc([C@H](C)N4C(=O)C5C(C4=O)C5(C)C)sc23)c1C[C@@H]1CNCCO1 (stereo partly drawn) next.
A) > 8.00

Q) Try Cc1cc(Cl)cc(-c2ncnc3cc(CN4C(=O)C5CC5C4=O)sc23)c1C[C@H]1CNCCO1 (stereo partly drawn) next.
A) 7.00 to 8.00

Q) Try Cc1cc(Cl)cc(-c2ncnc3cc(CN4C(=O)C5CC5C4=O)sc23)c1CC1(C)CNCCO1 (stereo not drawn) next.
A) 7.00 to 8.00

Q) Try Cc1cc(Cl)cc(-c2ccnc3cc(CN4C(=O)CCN(C)C4=O)sc23)c1CC1CNCC2(CCC2)O1 (stereo not drawn) next.
A) > 8.00

Q) Try CCC1NC(=O)N(Cc2cc3ncnc(-c4cc(Cl)cc(C)c4C[C@@H]4CNCCO4)c3s2)C1=O (stereo partly drawn) next.
A) > 8.00

---
Q) Item Cc1cc(Cl)cc(-c2ccnc3cc(CN4C(=O)CCC4=O)sc23)c1CC1CNCC(C)(C)O1 (stereo not drawn) has what recorded pIC50?
A) > 8.00

Q) Try Cc1cc(Cl)cc(-c2ncnc3cc(CN4C(=O)C5CCCN5C4=O)sc23)c1CC1CNCCO1 (stereo not drawn) next.
A) > 8.00

Q) Try `Cc1cc(Cl)cc(-c2ccnc3cc(CN4C(=O)CCC4=O)sc23)c1CN1[C@@H](C)CNC[C@@H]1C` next.
A) > 8.00

Q) Try `Cc1cc(Cl)cc(-c2ncnc3cc(CN4C(=O)CCN(CCCC(=O)O)C4=O)sc23)c1C[C@@H]1CNCCO1` next.
A) 7.00 to 8.00

Q) Try Cc1cc(Cl)cc(-c2ccnc3cc(CN4C(=O)C5CCC5C4=O)sc23)c1CC1CNCCO1 (stereo not drawn) next.
A) > 8.00

Q) Try Cc1cc(Cl)cc(-c2ccnc3cc(CN4C(=O)CCCC4C(F)(F)F)sc23)c1CC1CNCCO1 (stereo not drawn) next.
A) < 7.00

Q) Try Cc1cc(Cl)cc(-c2ncnc3cc(CN4C(=O)CCN(C)C4=O)sc23)c1CC1CNCCO1 (stereo not drawn) next.
A) > 8.00
